- testDescription: melting temperature; fluorescence melt of hairpins on a sequencing array, two-state fit, raised by 9.35 °C to match UV melts
- assayContext: sodium 0.088 M
Answer not met if Tm is under 40 °C, and met if it is 40 °C or more.

- residues: "GCTCGGCGAAAGCTAAGC (((..((....))..)))"
  class: "met"
- residues: "GCGAACGGAAACGCTCAC (.((.((....)).)).)"
  class: "not met"
- residues: "GTATCCCGAAAGGGGTAC (((.(((....))).)))"
  class: "met"
- residues: "GAACGCGAAAGCGATTC ((((((....))).)))"
  class: "met"
- residues: "GGCGTCGAAAGACGGGCC ((((((....)))..)))"
  class: "met"
- residues: "GATTCTGGAAACAGGATC (((.(((....))).)))"
  class: "met"
- residues: "GGCAATGGAAACATTGTC (.(((((....))))).)"
  class: "met"
- residues: "GATCATGCCTATGATC ((((((....))))))"
  class: "met"
- residues: "GTCCGCCGAAAGGCAGAC (((.(((....))).)))"
  class: "met"
- residues: "GGTAGTGGAAACACTGTC (..((((....))))..)"
  class: "not met"
- residues: "GGAACCCCGAAAGGGTCC (((..(((....))))))"
  class: "met"
- residues: "GCGACAATCGC ((((...))))"
  class: "met"
